biological target: UniProtKB P35462; experiment: D3 Dopamine Receptor (D3dR) cellular assay, cAMP HTRF functional assay in human-D3R expressing CHO cells; conditions: cAMP assay, CHO human-D3R; one experiment in duplicate
Structures can show the parent of a compound that is named as a salt.
Exercise: state measured pEC50 for each of the compounds provided.
Numbers only, as −log10 of the molar value.

Answered examples (3):
O=C(NCCC(F)CN1CCN(c2cccc(Cl)c2Cl)CC1)Oc1ccc(-c2ccccc2)cc1 (stereo not drawn) [Example 36]    6.82
O=C(NCCCN1CCN(c2ccccc2)CC1)Oc1cccc(-c2ccccc2)c1 [Example 5]    7.89
COc1ccccc1N1CCN(CCCCNC(=O)Oc2ccc(C(=O)c3ccccc3)cc2)CC1 [Example 45, hydrochloride]    7.54

Hey, quick one: what's pEC50 for each of these?
1. O=C(NCCCCN1CCN(c2cccc(Cl)c2Cl)CC1)Oc1cccc(N2CCOCC2)c1 [Example 8, hydrochloride]
2. O=C(NCCCCN1CCN(c2cccc(Cl)c2Cl)CC1)Oc1ccc(N2CCC(F)(F)CC2)cc1 [Example 12, hydrochloride]
3. Cc1ccccc1N1CCN(CCCNC(=O)Oc2cccc(N3CCOCC3)c2)CC1 [Example 13, hydrochloride]

[7.46, 7.31, 6.82]

Hey, quick one: what's pEC50 for each of these?
1. O=C(NCCCN1CCN(c2cccc(Cl)c2Cl)CC1)Oc1ccc2c(c1)[nH]c1ccccc12 [Example 17]
2. O=C(NCCCCN1CCN(c2cccc(Cl)c2Cl)CC1)Oc1ccc(-c2ccccn2)cc1 [Example 24]

6.82
8.23

Read off the recorded pEC50 for COc1cc(OC(=O)NCCCN2CCN(c3ccccc3OC)CC2)ccc1-c1ccccc1 [Example 37, hydrochloride]
7.42

* * *

target: human-D3R (Homo sapiens); construct: expressed in transfected cells; host or cells: CHO cell line stably transfected with human D3R; experiment: D3 Dopamine Receptor (D3dR) cellular assay, cAMP HTRF functional assay in human-D3R expressing CHO cells; assay type: cell-based; details: CHO, 0.5 h; % of 300 nM Dopamine response; read-out: Dopamine D3 % of Agonist Activity
Sequence (P35462 whole entry): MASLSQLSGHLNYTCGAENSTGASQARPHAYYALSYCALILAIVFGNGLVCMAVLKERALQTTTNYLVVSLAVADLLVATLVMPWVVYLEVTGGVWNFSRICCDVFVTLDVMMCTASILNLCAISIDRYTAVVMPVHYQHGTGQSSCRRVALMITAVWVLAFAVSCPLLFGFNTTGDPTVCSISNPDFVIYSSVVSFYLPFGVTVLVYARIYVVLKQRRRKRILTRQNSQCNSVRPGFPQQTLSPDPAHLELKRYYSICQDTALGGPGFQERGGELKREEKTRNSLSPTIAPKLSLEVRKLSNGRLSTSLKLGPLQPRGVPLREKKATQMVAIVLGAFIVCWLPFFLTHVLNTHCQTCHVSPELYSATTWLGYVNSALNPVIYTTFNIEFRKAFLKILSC
Where a name gives a salt, the structure may show the parent alone.
Classification field. Basis: Emax. Definitions: lower = under 80%, middle = from 80% up to 90%, upper = 90% and over

O=C(NCCCCN1CCN(c2cccc(Cl)c2Cl)CC1)Oc1cccc(N2CCOCC2)c1 [Example 8, hydrochloride]    middle
O=C(NCCCN1CCN(c2ccccc2C(F)(F)F)CC1)Oc1ccc(-c2ccccc2)cc1    upper
NC(=O)c1cccc(-c2ccc(OC(=O)NCCCCN3CCN(c4cccc(Cl)c4Cl)CC3)cc2F)c1    lower
COc1cc(OC(=O)NCCCN2CCN(c3ccccc3OC)CC2)ccc1-c1ccccc1 [Example 37, hydrochloride]    lower

Below: the item to evaluate.
Could you tell me which band O=C(NCCCN1CCN(c2ccccc2C(F)(F)F)CC1)Oc1ccc(N2CCC(F)(F)CC2)cc1 [Example 18, hydrochloride] belongs to?
middle

* * *

Exercise: state measured IC50 for each of the compounds provided.
Target: human FAAH-1 (Homo sapiens)
Construct: membrane preparation
Sequence (O00519 1-579): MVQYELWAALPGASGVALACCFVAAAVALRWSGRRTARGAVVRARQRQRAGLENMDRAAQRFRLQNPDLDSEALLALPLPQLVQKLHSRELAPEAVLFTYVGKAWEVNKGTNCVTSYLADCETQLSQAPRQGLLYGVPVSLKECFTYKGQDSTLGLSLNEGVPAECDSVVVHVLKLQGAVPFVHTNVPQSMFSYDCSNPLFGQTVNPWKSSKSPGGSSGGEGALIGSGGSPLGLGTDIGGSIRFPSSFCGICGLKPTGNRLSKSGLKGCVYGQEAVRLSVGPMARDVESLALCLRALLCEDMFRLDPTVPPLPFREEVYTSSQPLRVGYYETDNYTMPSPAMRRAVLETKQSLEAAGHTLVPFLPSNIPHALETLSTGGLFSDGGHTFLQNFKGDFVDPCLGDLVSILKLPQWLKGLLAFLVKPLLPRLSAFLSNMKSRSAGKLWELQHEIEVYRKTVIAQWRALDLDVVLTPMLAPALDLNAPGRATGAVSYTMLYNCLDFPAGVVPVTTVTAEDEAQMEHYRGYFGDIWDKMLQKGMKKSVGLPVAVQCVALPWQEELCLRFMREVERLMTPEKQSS
Experiment: Human recombinant Fatty Acid Amide Hydrolase-1 (FAAH-1) fluorescent assay, Hek293-hFAAH-1 membranes
Conditions: 3 separate experiments, each in triplicate
Protocol: Human Recombinant Fatty Acid Amide Hydrolase-1 (FAAH-1) Fluorescent Assay Hek293 cells stably transfected with human FAAH-1 were maintained in DMEM containing 10% FBS, 1% pen/strep and 500 μg/mL G418 to maintain selective pressure. […] Protein concentration was measured and samples aliquot stored at −80° C. until use. […] Fluorescence was detected with Tecan Infinite M200 nanoquant (Tecan Group Ltd.) at an excitation wavelength 350 nm and an emission wavelength 460 nm. […]
Structures can show the parent of a compound that is named as a salt.

Answered examples (5):
O=C(NCCCCN1CCN(c2cccc(Cl)c2Cl)CC1)Oc1cccc(N2CCOCC2)c1 [Example 8, hydrochloride]    3.4 nM
O=C(NCCCN1CCN(c2ccccc2)CC1)Oc1cccc(-c2ccccc2)c1    3.4 nM
COc1ccccc1N1CCN(CCCNC(=O)Oc2ccc(Cc3ccccc3)cc2)CC1 [Example 43, hydrochloride]    18 nM
Cc1ccccc1N1CCN(CCCNC(=O)Oc2cccc(N3CCOCC3)c2)CC1 [Example 13, hydrochloride]    4.4 nM
O=C(NCC(CF)N1CCN(c2cccc(Cl)c2Cl)CC1)Oc1ccc(-c2ccccc2)cc1 (stereo not shown) [Example 41, hydrochloride]    9.9 nM

Hey, quick one: what's IC50 for each of these?
1. COc1cc(OC(=O)NCCCN2CCN(c3ccccc3OC)CC2)ccc1-c1ccccc1 [Example 37, hydrochloride]
2. O=C(NCCCN1CCN(c2ccccc2C(F)(F)F)CC1)Oc1ccc(-c2ccccc2)cc1
3. COc1ccccc1N1CCN(CCCNC(=O)Oc2ccc(C(=O)c3ccccc3)cc2)CC1 [Example 44, hydrochloride]
4. Cc1ccccc1N1CCN(CCCNC(=O)Oc2ccc(-c3ccccc3)cc2)CC1

["7.8 nM", "12 nM", "11 nM", "4.1 nM"]

Report IC50 from human FAAH-1 (Homo sapiens) testing of O=C(NCCCCN1CCN(c2cccc(Cl)c2Cl)CC1)Oc1ccc(N2CCC(F)(F)CC2)cc1 [Example 12, hydrochloride]
9.9 nM

These data points were gathered from patent US9828352B2.
